Quick record of IC50 values for D-amino-acid oxidase (Homo sapiens, UniProt P14920).

Look over these answered cases.
{"columns": ["COMPOUND_STRUCTURE_STRING", "STUDY_TARGET", "IC50"],
 "data": [
  ["O=C(O)c1cc2occ(CO)c2[nH]1", "D-amino-acid oxidase (Homo sapiens, UniProt P14920)", "> 5 µM"],
  ["O=C(O)c1cc2oc(-c3ccc(Cl)cc3)cc2[nH]1", "D-amino-acid oxidase (Homo sapiens, UniProt P14920)", "> 5 µM"],
  ["N#Cc1csc2cc(C(=O)O)[nH]c12", "D-amino-acid oxidase (Homo sapiens, UniProt P14920)", "1.15 µM"]
]}

Look up IC50 with D-amino-acid oxidase (Homo sapiens, UniProt P14920) for this compound: O=C(O)c1cc2ocnc2[nH]1
Sequence (P14920 whole entry): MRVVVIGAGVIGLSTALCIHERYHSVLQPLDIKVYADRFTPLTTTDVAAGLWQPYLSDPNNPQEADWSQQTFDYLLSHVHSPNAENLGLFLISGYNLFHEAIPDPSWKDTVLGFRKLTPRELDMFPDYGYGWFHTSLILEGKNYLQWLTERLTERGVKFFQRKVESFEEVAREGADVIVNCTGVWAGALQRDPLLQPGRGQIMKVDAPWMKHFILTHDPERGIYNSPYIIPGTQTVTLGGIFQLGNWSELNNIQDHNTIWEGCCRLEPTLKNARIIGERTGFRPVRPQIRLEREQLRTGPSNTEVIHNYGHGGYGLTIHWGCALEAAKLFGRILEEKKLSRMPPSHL
> 5 µM

Kindly state the measured IC50 obtained for Cc1oc2cc(C(=O)O)[nH]c2c1C with D-amino-acid oxidase (Homo sapiens, UniProt P14920).
> 5 µM

Under D-amino-acid oxidase (Homo sapiens, UniProt P14920): IC50 value of O=C(O)c1cc2[nH]ncc2[nH]1 ?
> 5 µM

----------
Biological target: UniProtKB P14920
ENDPOINT: IC50

{"columns": ["COMPOUND_STRUCTURE_STRING", "REPORTED_VALUE"],
 "data": [
  ["O=C(O)c1cc2occ(Cl)c2[nH]1", "1430 nM"],
  ["O=C(O)c1cc2oc(-c3ccc(Cl)cc3Cl)cc2[nH]1", "> 5000 nM"],
  ["O=C(O)c1cc2ncsc2[nH]1", "4200 nM"],
  ["O=C(O)c1cc2occ(-c3cccnc3)c2[nH]1", "> 5000 nM"]
]}

The record that follows has no IC50 shown yet.
// fetch UniProtKB P14920 IC50 for O=C(O)c1cc2ccsc2[nH]1
269 nM
